Target: T1, Human BSSL (bile salt-stimulated lipase), native (human, UniProt P19835 21-753)
T1 sequence: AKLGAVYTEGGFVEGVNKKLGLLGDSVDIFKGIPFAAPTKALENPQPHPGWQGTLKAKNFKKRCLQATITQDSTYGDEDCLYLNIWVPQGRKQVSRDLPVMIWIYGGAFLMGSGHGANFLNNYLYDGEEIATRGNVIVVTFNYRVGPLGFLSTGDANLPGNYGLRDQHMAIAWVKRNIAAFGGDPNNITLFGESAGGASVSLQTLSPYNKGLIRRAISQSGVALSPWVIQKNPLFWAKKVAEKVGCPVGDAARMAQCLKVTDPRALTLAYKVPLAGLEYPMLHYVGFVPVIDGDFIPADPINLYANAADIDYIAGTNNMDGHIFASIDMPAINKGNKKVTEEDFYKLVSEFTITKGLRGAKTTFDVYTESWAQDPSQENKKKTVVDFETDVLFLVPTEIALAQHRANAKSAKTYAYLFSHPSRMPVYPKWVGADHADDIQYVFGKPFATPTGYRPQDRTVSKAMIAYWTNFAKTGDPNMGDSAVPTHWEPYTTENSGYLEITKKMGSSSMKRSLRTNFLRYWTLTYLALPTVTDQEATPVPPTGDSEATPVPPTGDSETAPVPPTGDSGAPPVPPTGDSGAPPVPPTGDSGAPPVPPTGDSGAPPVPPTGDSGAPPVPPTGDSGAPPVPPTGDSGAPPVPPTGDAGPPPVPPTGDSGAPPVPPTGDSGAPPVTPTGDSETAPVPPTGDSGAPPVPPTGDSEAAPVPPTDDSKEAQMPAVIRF
Test: cell-based or functional assay
Below, each entry is listed with its recorded BSSL hydrolysis of triglycerides, relative value (no antibody = 100%); 3.0 ug antibody.
Provide the reading as a plain figure in %.

* S-SL048-116 hIgG4 S228P (antibody, V domains shown, also called mAb116) VH: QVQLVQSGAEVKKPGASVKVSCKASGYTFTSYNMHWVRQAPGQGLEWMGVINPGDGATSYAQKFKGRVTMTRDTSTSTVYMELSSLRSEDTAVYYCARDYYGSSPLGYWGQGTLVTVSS VL: DIQMTQSPSSLSASVGDRVTITCRASPSISYMNWYQQKPGKAPKLLIYATSSLASGVPSRFSGSGSGTDFTLTISSLQPEDFATYYCHQRSSSPTFGQGTKLEIKR | 106

QUERY: GET /values?readout=BSSL hydrolysis of triglycerides, relative value (no antibody = 100%); 3.0 ug antibody&item= S-SL048-118 hIgG4 S228P (antibody, V domains shown, also called clone 118; mAb118) VH: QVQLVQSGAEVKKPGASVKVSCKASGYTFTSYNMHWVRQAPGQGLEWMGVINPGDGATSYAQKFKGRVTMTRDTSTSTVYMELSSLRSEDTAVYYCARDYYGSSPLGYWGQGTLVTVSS VL: DIQMTQSPSSLSASVGDRVTITCSASPSISYMNWYQQKPGKAPKLLIYATSSLPSGVPSRFSGSGSGTDFTLTISSLQPEDFATYYCHQRSSSPTFGQGTKLEIKR
RESULT: 93.9

QUERY: Requested read-out: BSSL hydrolysis of triglycerides, relative value (no antibody = 100%); 3.0 ug antibody. Entry: S-SL048-11 hIgG4 S228P (antibody, V domains shown, also called clone 11; mAb11) VH: QVQLVQSGAEVKKPGASVKVSCKASGYTFTSYNMHWVRQAPGQGLEWMGVIYPGDGATSYAQKFKGRVTMTRDTSTSTVYMELSSLRSEDTAVYYCARDYYGSSPLGYWGQGTLVTVSS VL: DIQMTQSPSSLSASVGDRVTITCSASPSISYMNWYQQKPGKAPKLLIYATSSLASGVPSRFSGSGSGTDFTLTISSLQPEDFATYYCHQRSSYPTFGQGTKLEIKR
RESULT: 120

QUERY: What value of BSSL hydrolysis of triglycerides, relative value (no antibody = 100%); 3.0 ug antibody has been recorded for this entry: S-SL048-46 hIgG4 S228P (antibody, V domains shown, also called clone 46; mAb46) VH: QVQLVQSGAEVKKPGASVKVSCKASGYTFTSYNMHWVRQAPGQGLEWMGVINPGDGATSYNQKFQGRVTMTRDTSTSTVYMELSSLRSEDTAVYYCARDYYGSSPLGYWGQGTLVTVSS VL: DIQMTQSPSSLSASVGDRVTITCRASSSISYLNWYQQKPGKAPKLLIYAASSLASGVPSRFSGSGSGTDFTLTISSLQPEDFATYYCHQRSSSPTFGQGTKLEIKR
RESULT: 119

QUERY: Which BSSL hydrolysis of triglycerides, relative value (no antibody = 100%); 3.0 ug antibody reading was recorded for the binder S-SL048-106 hIgG4 S228P (antibody, V domains shown, also called mAb106) VH: QVQLVQSGAEVKKPGASVKVSCKASGYTFTSYNMHWVRQAPGQGLEWIGVIYPGDGSTSYNQKFQGRVTMTRDTSTSTVYMELSSLRSEDTAVYYCARDYYGSSPLGYWGQGTLVTVSS VL: DIQMTQSPSSLSASVGDRVTITCSASSSISYMNWYQQKPGKAPKLLIYATSKLPSGVPSRFSGSGSGTDFTLTISSLQPEDFATYYCHQRSSTPTFGQGTKLEIKR ?
RESULT: 99.2
